Every entry's value here was drawn from ChEMBL document CHEMBL1148809.

Assay: Partition coefficient, log P of the compound
Type: physicochemical
Conditions: octanol/water; read-out: LogP
VALUE_KIND: logP

{"GIVEN_SMILES": "CC(=O)O[C@H]1CC[C@@](C)(O)[C@]23OC(C)(C)[C@H](C[C@H](OC(=O)c4ccco4)[C@]12C)[C@H]3OC(=O)c1ccco1", "READOUT_VALUE": 5.3}
{"GIVEN_SMILES": "CC(=O)O[C@H]1[C@@H](OC(=O)c2ccco2)C[C@@](C)(O)[C@]23OC(C)(C)[C@H](C[C@H](OC(=O)c4ccco4)[C@]12C)[C@H]3OC(=O)c1ccco1", "READOUT_VALUE": 6.5}
{"GIVEN_SMILES": "CC(=O)OC[C@]12[C@@H](OC(=O)c3ccccc3)[C@@H](OC(=O)c3ccccc3)[C@@H]3[C@@H](OC(C)=O)[C@]1(OC3(C)C)[C@](C)(O)C[C@H](OC(C)=O)[C@@H]2OC(C)=O", "READOUT_VALUE": 7.6}
{"GIVEN_SMILES": "CC(=O)O[C@H]1C[C@@](C)(O)[C@]23OC(C)(C)[C@H](C[C@H](OC(=O)c4ccco4)[C@]2(C)[C@H]1OC(C)=O)[C@H]3OC(=O)c1ccccc1", "READOUT_VALUE": 6.1}
{"GIVEN_SMILES": "CC(=O)O[C@H]1C[C@@](C)(O)[C@]23OC(C)(C)[C@H](C[C@H](OC(=O)c4ccco4)[C@]2(C)[C@H]1OC(C)=O)[C@H]3OC(=O)C(C)(C)C", "READOUT_VALUE": 5}

* * *

Target: ATP-dependent translocase ABCB1 (Homo sapiens, UniProt P08183)
Sequence (P08183 whole entry): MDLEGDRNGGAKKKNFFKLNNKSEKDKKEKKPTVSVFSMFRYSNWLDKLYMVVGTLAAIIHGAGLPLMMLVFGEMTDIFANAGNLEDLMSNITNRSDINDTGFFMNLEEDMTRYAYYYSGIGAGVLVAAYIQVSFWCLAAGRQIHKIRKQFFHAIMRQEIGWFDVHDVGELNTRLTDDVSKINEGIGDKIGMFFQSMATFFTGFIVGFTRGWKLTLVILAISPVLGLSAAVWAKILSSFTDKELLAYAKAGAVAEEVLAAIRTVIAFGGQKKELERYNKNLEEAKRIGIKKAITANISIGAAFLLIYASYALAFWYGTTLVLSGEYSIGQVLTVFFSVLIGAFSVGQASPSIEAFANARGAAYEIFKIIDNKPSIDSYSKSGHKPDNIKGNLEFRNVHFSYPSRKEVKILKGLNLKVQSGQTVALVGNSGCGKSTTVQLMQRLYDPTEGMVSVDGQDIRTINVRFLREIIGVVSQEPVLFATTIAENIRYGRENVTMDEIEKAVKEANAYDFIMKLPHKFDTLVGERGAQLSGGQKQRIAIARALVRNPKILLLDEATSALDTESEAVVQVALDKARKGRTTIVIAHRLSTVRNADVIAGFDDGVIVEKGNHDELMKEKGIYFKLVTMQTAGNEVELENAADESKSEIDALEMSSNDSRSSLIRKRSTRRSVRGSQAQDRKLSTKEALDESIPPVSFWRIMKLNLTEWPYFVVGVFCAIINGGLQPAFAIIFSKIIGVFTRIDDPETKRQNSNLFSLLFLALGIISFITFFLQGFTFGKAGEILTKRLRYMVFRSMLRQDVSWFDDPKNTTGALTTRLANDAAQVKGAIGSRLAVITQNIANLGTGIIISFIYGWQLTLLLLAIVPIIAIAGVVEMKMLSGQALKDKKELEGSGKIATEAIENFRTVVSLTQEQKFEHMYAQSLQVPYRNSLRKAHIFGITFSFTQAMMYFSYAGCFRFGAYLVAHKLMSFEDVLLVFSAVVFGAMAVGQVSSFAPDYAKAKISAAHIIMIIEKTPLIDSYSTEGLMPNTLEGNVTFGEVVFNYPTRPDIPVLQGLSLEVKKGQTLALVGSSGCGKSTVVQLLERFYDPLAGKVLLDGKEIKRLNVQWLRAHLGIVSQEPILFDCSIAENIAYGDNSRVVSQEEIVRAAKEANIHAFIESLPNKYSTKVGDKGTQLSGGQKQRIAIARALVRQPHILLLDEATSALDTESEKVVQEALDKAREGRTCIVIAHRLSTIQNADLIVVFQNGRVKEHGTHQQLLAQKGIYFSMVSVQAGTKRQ
Assay: Inhibition of human Pgp-mediated DNR transport in NIH3T3 cells by microplate assay
Assay type: cell-based, Mus musculus
Details: read-out: Ki
pKi: −log10 of the molar value.
VALUE_KIND: pKi

Recorded pKi, per entry:
{"GIVEN_SMILES": "CC(=O)OC[C@]12[C@H](OC(=O)c3ccccc3)C(=O)[C@@H]3[C@@H](OC(C)=O)[C@]1(OC3(C)C)[C@](C)(O)C[C@H](OC(C)=O)[C@@H]2OC(=O)c1ccccc1", "READOUT_VALUE": 5.52}
{"GIVEN_SMILES": "CC(=O)O[C@H]1[C@H](OC(=O)c2ccccc2)[C@@]2(C)[C@@H](OC(=O)/C=C/c3ccccc3)C[C@@H]3[C@@H](OC(C)=O)[C@]2(OC3(C)C)[C@](C)(O)[C@H]1OC(=O)c1cccnc1", "READOUT_VALUE": 4.60}
{"GIVEN_SMILES": "CC(=O)O[C@H]1C[C@@](C)(O)[C@]23OC(C)(C)[C@H](C[C@H](OC(=O)c4ccco4)[C@]2(C)[C@H]1OC(C)=O)[C@H]3OC(=O)C(C)(C)C", "READOUT_VALUE": 6.02}
{"GIVEN_SMILES": "CC(=O)O[C@H]1[C@@H](OC(=O)c2ccccc2)C[C@@](C)(O)[C@]23OC(C)(C)[C@H](C[C@H](OC(=O)c4ccco4)[C@]12C)[C@H]3OC(=O)c1cccc2ccccc12", "READOUT_VALUE": 5.34}
{"GIVEN_SMILES": "CCCCCCCCCCCC(=O)O[C@@H]1[C@H]2C[C@H](OC(=O)c3ccco3)[C@]3(C)[C@@H](OC(C)=O)[C@@H](OC(C)=O)C[C@@](C)(O)[C@@]13OC2(C)C", "READOUT_VALUE": 6.10}
{"GIVEN_SMILES": "CC(=O)O[C@H]1[C@@H]2[C@@H](OC(C)=O)[C@]3(OC2(C)C)[C@H](C)C[C@H](OC(=O)c2cccnc2)[C@H](OC(=O)c2ccccc2)[C@@]3(C)[C@H]1OC(=O)c1ccccc1", "READOUT_VALUE": 5.11}

a: CC(=O)O[C@H]1[C@H](OC(=O)c2cccnc2)[C@@]2(C)[C@@H](OC(=O)c3ccccc3)[C@@H](OC(=O)c3ccccc3)[C@@H]3C[C@]2(OC3(C)C)[C@](C)(O)[C@H]1OC(C)=O
b: CC(=O)OC[C@]12[C@@H](OC(=O)c3ccco3)C[C@@H]3[C@@H](OC(=O)c4ccco4)[C@]1(OC3(C)C)[C@](C)(O)C[C@H](OC(C)=O)[C@@H]2OC(C)=O
I need your help: which of the pair a , b has higher pKi? Respond with the label that goes with your answer.
a

* * *

Assay: Partition coefficient, log P of the compound
Type: physicochemical
Details: octanol/water; read-out: LogP
VALUE_KIND: logP

Illustrative cases are given below, each with its answer.
{"GIVEN_SMILES": "CC(=O)O[C@H]1C[C@@](C)(O)[C@]23OC(C)(C)[C@H](C[C@H](OC(=O)c4ccco4)[C@]2(C)[C@H]1OC(C)=O)[C@H]3OC(=O)C(F)(F)F", "logP": 4.1}
{"GIVEN_SMILES": "CC(=O)O[C@H]1[C@@H](OC(=O)c2cccnc2)C[C@@](C)(O)[C@]23OC(C)(C)[C@H](C[C@H](OC(=O)c4ccco4)[C@]12C)[C@H]3OC(=O)c1ccco1", "logP": 6.1}
{"GIVEN_SMILES": "CC(=O)O[C@H]1[C@@H]2[C@@H](OC(C)=O)[C@]3(OC2(C)C)[C@H](C)C[C@H](OC(=O)c2cccnc2)[C@H](OC(=O)c2ccccc2)[C@@]3(C)[C@H]1OC(=O)c1ccccc1", "logP": 8.7}
{"GIVEN_SMILES": "CC(=O)OC[C@]12[C@H](OC(=O)c3ccccc3)C(=O)[C@@H]3[C@@H](O)[C@]1(OC3(C)C)[C@](C)(O)C[C@H](OC(C)=O)[C@@H]2OC(=O)c1ccccc1", "logP": 7.2}

A: CC(=O)O[C@H]1C[C@@](C)(O)[C@]23OC(C)(C)[C@H](C[C@H](OC(=O)c4ccco4)[C@]2(C)[C@H]1OC(=O)c1ccccc1)[C@H]3OC(=O)c1ccco1
B: CC(=O)O[C@H]1[C@@H](OC(=O)c2ccco2)C[C@@](C)(O)[C@]23OC(C)(C)[C@H](C[C@H](OC(=O)c4ccco4)[C@]12C)[C@H]3O
Which of the two items, A and B , has the greater recorded logP? Give the label of your selection.
A
(A: 7.2, B: 4.7)

* * *

Assay: Partition coefficient, log P of the compound
Assay type: physicochemical
Conditions: octanol/water; read-out: LogP
VALUE_KIND: logP

{"GIVEN_SMILES": "CC(=O)OC[C@]12[C@H](OC(C)=O)[C@H](OC(C)=O)[C@@H]3[C@@H](OC(C)=O)[C@]1(O[C@@]3(C)COC(C)=O)[C@](C)(O)[C@@H](OC(C)=O)[C@H](OC(C)=O)[C@@H]2OC(C)=O", "logP": 3.6}

1: CC(=O)OC[C@]12[C@@H](OC(=O)c3ccccc3)C[C@@H]3[C@@H](OC(=O)c4ccccc4)[C@]1(OC3(C)C)[C@](C)(O)C[C@H](OC(=O)c1cccnc1)[C@@H]2OC(C)=O
2: CC(=O)OC[C@]12[C@H](OC(C)=O)C(=O)[C@@H]3[C@@H](O)[C@]1(OC3(C)C)[C@](C)(O)C[C@H](OC(C)=O)[C@@H]2OC(C)=O
3: CC(=O)OC[C@]12[C@H](OC(=O)c3ccccc3)C(=O)[C@@H]3[C@@H](OC(C)=O)[C@]1(OC3(C)C)[C@H](C)C[C@H](OC(C)=O)[C@@H]2O
Put these in order: smallest logP first, largest last. A ranking is expressed here by listing the labels in the requested order.
2, 3, 1

I: CC(=O)O[C@H]1C[C@@](C)(O)[C@]23OC(C)(C)[C@H](C[C@H](OC(=O)c4ccco4)[C@]2(C)[C@H]1O)[C@H]3OC(=O)c1ccco1
II: CCCCCO[C@H]1[C@@H](OC(=O)c2ccco2)C[C@@](C)(O)[C@]23OC(C)(C)[C@H](C[C@H](OC(=O)c4ccco4)[C@]12COC(C)=O)[C@H]3OC(C)=O
Would you let me know which has the greater logP value, I or II ? Identify your selection by its label.
II
(II: 6.9, I: 4.3)

* * *

Target: P-gp (ABCB1) (Homo sapiens)
Test: Inhibition of human Pgp-mediated DNR transport in NIH3T3 cells by microplate assay
Format: cell-based, Mus musculus
Details: mouse, NIH3T3 cells expressing human P-gp, probe DNR; read-out: Imax
VALUE_KIND: Emax (%)

{"GIVEN_SMILES": "CC(=O)O[C@H]1[C@@H](OC(=O)c2ccco2)C[C@@](C)(O)[C@]23OC(C)(C)[C@H](C[C@H](OC(=O)c4ccco4)[C@]12C)[C@H]3O", "STUDY_TARGET": "P-gp (ABCB1) (Homo sapiens)", "UNIT": "%", "Emax": 41.2}

P: CC(=O)O[C@H]1[C@H](OC(=O)c2ccccc2)[C@@]2(C)[C@@H](OC(=O)c3ccccc3)C[C@@H]3[C@@H](OC(C)=O)[C@]2(OC3(C)C)[C@](C)(O)[C@H]1OC(=O)c1cccnc1
Q: CC(=O)OC[C@]12[C@H](OC(C)=O)C(=O)[C@@H]3[C@@H](O)[C@]1(OC3(C)C)[C@](C)(O)C[C@H](OC(C)=O)[C@@H]2OC(C)=O
R: CC(=O)O[C@H]1[C@@H](O)[C@H](OC(=O)c2ccccc2)[C@@]2(C)[C@@H](OC(=O)/C=C/c3ccccc3)C[C@@H]3C[C@]2(OC3(C)C)[C@@H]1C
List items by Emax in falling order. // respond by listing labels in the order requested
P, R, Q
